ASSAY_SYSTEM: T1, PD-L1 Protein, Cynomolgus, Recombinant (His Tag) (cynomolgus)
T1 construct: Bought protein; also called QPP10.1; SinoBiologic 90251-C08H
METHOD: SPR Biacore T200, antibody captured, PD-L1 His as analyte, 1:1 binding
PROPERTY: koff (s⁻¹)
Lab book: enter the figure in s⁻¹, no units written.

BINDER	PROPERTY	REPORTED_VALUE
QP325 (Fc fusion, Humanization design of QP1166; VHH-Fc; also called 1166-V3; QD325; not shown: human IgG1-FC constant region fused to the C terminal of the VHH) EVQLLESGGGLVQPGGSLRLSCAASGFTYGTYAMSWFRQAPGKGLEGVACIDIYGRTSYTDPVKGRFTISQDNSKNTLYLQMNSLRAEDTAVYYCAARDFGYCTASWVHEGFSRYWGQGTLVTVSS	koff	0.00416
QP322 (Fc fusion, Humanization design of QP1162; VHH at the N-terminal of FC; also called 1162-V3; QD322; not shown: human IgG1-FC constant region fused to the C terminal of the VHH) EVQLLESGGGLVQPGGSLRLSCAASGFTYGTYAMSWFRQAPGKGREGVACIDIYGRASYTDPVKGRFTISQDNSKNTLYLQMNSLKAEDTAVYYCAARDFGYCTASWVHEGFSRYWGQGTLVTVSS	koff	0.00354
QP1166 (Fc fusion, Chimeric antibody before humanization; also called QD1166; nanobody QP1166; not shown: Fc part: called chimeric antibody, cloned in vector VH-FC-pQD) QVQLVESGGDSVQPGGSLRLSCAASGFTYGTYAMSWFRQAPGKEREGVACIDIYGRTSYTDPVKGRFTISQDNAKNTLYLQMNSLKPEDTAMYYCAARDFGYCTASWVHEGFSRYWGQGTQVTVSS	koff	0.00266

Kindly consider the entry below.
Input: May I ask what koff has been recorded for QP1162 (Fc fusion, Chimeric antibody before humanization; also called QD1162; nanobody QP1162; not shown: Fc part: called chimeric antibody, cloned in vector VH-FC-pQD) QVQLVESGGGSVQSGGSLRLSCAASGFTYGTYAMSWFRQAPGKEREGVACIDIYGRASYTDPVKGRFTISQDNAKNTLYLQMNSLKPEDTAMYYCAARDFGYCTASWVHEGFSRYWGQGTQVTVSS ?
Output: 0.00401
